Tested on: Escherichia coli TOP10
Experiment: shrunken log2 fold change of peptide-encoding DNA abundance (4.5 h post-induction vs induction); higher = less antimicrobial activity (less host growth inhibition)
Details: time post-induction: 4.5 h; library: site-saturation at positions 5, 18, 19, 20
Measurement kind: shrunken log2 fold change
Respond with the number and no other words.

I would be grateful if you could share the reported shrunken log2 fold change for `RRIRERPPRLPRPRPRPIQKPRP` . -0.184

Then what about the sequence `RRIRSRPPRLPRPRPRPPFPPRP` ? 0.256

* * *

Test system: Escherichia coli TOP10
Assay: shrunken log2 fold change of peptide-encoding DNA abundance (4.5 h post-induction vs induction); higher = less antimicrobial activity (less host growth inhibition)
Details: time post-induction: 4.5 h; library: site-saturation at positions 5, 18, 19, 20
Reported shrunken log2 fold change is given for each of the following sequences.
Enter the number alone.

Consider the sequence shown here: `RRIRVRPPRLPRPRPRPNIAPRP` What is its recorded shrunken log2 fold change? 0.249

* * *

System: Escherichia coli TOP10
Assay: shrunken log2 fold change of peptide-encoding DNA abundance (4.5 h post-induction vs induction); higher = less antimicrobial activity (less host growth inhibition)
Details: time post-induction: 4.5 h; library: site-saturation at positions 5, 18, 19, 20
Is shrunken log2 fold change at least 0.3? Then class 1. If not, class 0.

Macromolecule sequence: RRIRRRPPRLPRPRPRPNKWPRP
Assigned label: class 0
--
Macromolecule sequence: RRIRMRPPRLPRPRPRPPMTPRP
Assigned label: class 1
--
Macromolecule sequence: RRIRLRPPRLPRPRPRPVGSPRP
Assigned label: class 0
--
Macromolecule sequence: RRIRWRPPRLPRPRPRPSPSPRP
Assigned label: class 1
--
Macromolecule sequence: RRIRARPPRLPRPRPRPLGSPRP
Assigned label: class 1

Determine whether this sequence has shrunken log2 fold change no lower than 0.3: `RRIRWRPPRLPRPRPRPNKKPRP` class 0

Next sequence up: `RRIRNRPPRLPRPRPRPHFTPRP` class 0

Follow-up entry: `RRIRWRPPRLPRPRPRPRNDPRP` class 0

Likewise for `RRIRTRPPRLPRPRPRPTERPRP` ? class 1

Input `RRIRFRPPRLPRPRPRPIHRPRP` class 0

Same lookup for `RRIRLRPPRLPRPRPRPEPGPRP` , please. class 1

* * *

System: Escherichia coli TOP10;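 further: peptides expressed intracellularly from a pBAD plasmid library in pooled LB shake-flask culture, induced with 0.3% L-arabinose, DNA abundance read by NGS, three biological replicates, DESeq2 with apeglm shrinkage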
Experiment: shrunken log2 fold change of peptide-encoding DNA abundance (4.5 h post-induction vs induction); higher = less antimicrobial activity (less host growth inhibition)
Settings: time post-induction: 4.5 h; library: site-saturation at positions 5, 18, 19, 20
Listed here: items and their measured shrunken log2 fold change.
Answer with a number only.

Use the examples below as a reference point.
Macromolecule sequence: RRIRNRPPRLPRPRPRPNPVPRP
shrunken log2 fold change: -0.139
--
Macromolecule sequence: RRIRVRPPRLPRPRPRPISMPRP
shrunken log2 fold change: 0.0223
--
Macromolecule sequence: RRIRFRPPRLPRPRPRPHTMPRP
shrunken log2 fold change: -0.459
--
Macromolecule sequence: RRIRTRPPRLPRPRPRPLEVPRP
shrunken log2 fold change: -0.00296
--
Macromolecule sequence: RRIRTRPPRLPRPRPRPISLPRP
shrunken log2 fold change: -0.0795
--
Macromolecule sequence: RRIRCRPPRLPRPRPRPFYCPRP
shrunken log2 fold change: -0.645
--
Macromolecule sequence: RRIRKRPPRLPRPRPRPWLYPRP
shrunken log2 fold change: 0.00941
--
Macromolecule sequence: RRIRIRPPRLPRPRPRPPPAPRP
shrunken log2 fold change: 0.543

Notebook entry, Escherichia coli TOP10 assay: shrunken log2 fold change of `RRIRMRPPRLPRPRPRPDMWPRP` = ? 0.805

Subsequent entry: `RRIRGRPPRLPRPRPRPRMEPRP` 0.483

Also `RRIRIRPPRLPRPRPRPFFLPRP` ? -0.406

Ok, now `RRIRDRPPRLPRPRPRPFQEPRP` -0.137

Likewise for `RRIRFRPPRLPRPRPRPSMIPRP` ? -0.603

Could you do the same for `RRIRTRPPRLPRPRPRPAWLPRP` , please? -0.0636

Could you do the same for `RRIRQRPPRLPRPRPRPCVRPRP` , please? -0.154
